target: Recombinant human MASP2 enzyme (fragment corresponding to amino acids 297-686, C-terminal His Tag) (human, UniProt O00187 297-686); experiment: cell-based or functional assay
Sequence (O00187 other isoform, or with tags, fused parts or gaps limits assumed): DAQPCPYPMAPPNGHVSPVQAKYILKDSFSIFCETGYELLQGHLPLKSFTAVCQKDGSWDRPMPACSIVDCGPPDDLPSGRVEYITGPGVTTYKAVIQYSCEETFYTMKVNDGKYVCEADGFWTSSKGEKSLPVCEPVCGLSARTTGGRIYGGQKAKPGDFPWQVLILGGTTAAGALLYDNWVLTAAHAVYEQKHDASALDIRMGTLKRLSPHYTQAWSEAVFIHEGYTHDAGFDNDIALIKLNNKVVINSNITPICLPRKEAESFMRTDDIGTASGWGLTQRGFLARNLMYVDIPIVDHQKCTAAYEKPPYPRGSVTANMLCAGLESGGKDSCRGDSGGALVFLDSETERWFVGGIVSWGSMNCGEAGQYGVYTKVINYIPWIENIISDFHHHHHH
Numbered stars: 1 amine (or outer) side, 2 acyl side, 3 side chain; on linkers, the order of the positions; unused ones are H or OH. Bridge positions count the residues as written; N and C are the ends. Square brackets hold non-standard residues; d marks the D form. Ends that are not written are not given here. Phe(2,5-F2) = 2,5-difluorophenylalanine, O=C([C@H](Cc1cc(F)ccc1F)N[*:1])[*:2]; Oic = O=C(O)[C@@H]1C[C@@H]2CCCC[C@@H]2N1; tBuAla = CC(C)(C)C[C@H](N)C(=O)O; Pen = CC(C)(S)[C@H](N)C(=O)O; NMeC = CN[C@@H](CS)C(=O)O; Sar = CNCC(=O)O
MEASUREMENT_TYPE: human MASP2 IC50
In your response, the unit should come after the numeric value.

Reference set, count: 3
BINDER: [Sar]ICSRSLP[Oic]I[Pen]IPQ-NH2 (disulfide 3-11; N-terminus assumed; SMILES CC[C@H](C)[C@H](NC(=O)CNC)C(=O)N[C@H]1CSSC(C)(C)[C@@H](C(=O)N[C@H](C(=O)N2CCC[C@H]2C(=O)N[C@@H](CCC(N)=O)C(N)=O)[C@@H](C)CC)NC(=O)[C@H]([C@@H](C)CC)NC(=O)[C@@H]2C[C@@H]3CCCC[C@@H]3N2C(=O)[C@@H]2CCCN2C(=O)[C@H](CC(C)C)NC(=O)[C@H](CO)NC(=O)[C@H](CCCNC(=N)N)NC(=O)[C@H](CO)NC1=O) [((N-Me)G)-IC+SRSLP-(Oic)-I-(Pen)+IPQ-NH2]
human MASP2 IC50: 190 nM
//
BINDER: [Sar]ICSRS[tBuAla]PPI[Pen]IPP-NH2 (disulfide 3-11; N-terminus assumed; SMILES CC[C@H](C)[C@H](NC(=O)CNC)C(=O)N[C@H]1CSSC(C)(C)[C@@H](C(=O)N[C@H](C(=O)N2CCC[C@H]2C(=O)N2CCC[C@H]2C(N)=O)[C@@H](C)CC)NC(=O)[C@H]([C@@H](C)CC)NC(=O)[C@@H]2CCCN2C(=O)[C@@H]2CCCN2C(=O)[C@H](CC(C)(C)C)NC(=O)[C@H](CO)NC(=O)[C@H](CCCNC(=N)N)NC(=O)[C@H](CO)NC1=O) [((N-Me)G)-IC+SRS-((tBu)A)-PPI-(Pen)+IPP-NH2]
human MASP2 IC50: 63 nM
//
BINDER: AICSRS[Phe(2,5-F2)]PPI[NMeC]IPD-NH2 (disulfide 3-11; N-terminus assumed; SMILES CC[C@H](C)[C@H](NC(=O)[C@H](C)N)C(=O)N[C@H]1CSSC[C@@H](C(=O)N[C@H](C(=O)N2CCC[C@H]2C(=O)N[C@@H](CC(=O)O)C(N)=O)[C@@H](C)CC)N(C)C(=O)[C@H]([C@@H](C)CC)NC(=O)[C@@H]2CCCN2C(=O)[C@@H]2CCCN2C(=O)[C@H](Cc2cc(F)ccc2F)NC(=O)[C@H](CO)NC(=O)[C@H](CCCNC(=N)N)NC(=O)[C@H](CO)NC1=O) [AIC+SRS-((2,5-Difluoro)F)-PPI-((N-Me)C)+IPD-NH2]
human MASP2 IC50: 63 nM

query: Field request: human MASP2 IC50 | item: AICSRSLP[Oic]ICIPD-NH2 (disulfide 3-11; N-terminus assumed; SMILES CC[C@H](C)[C@H](NC(=O)[C@H](C)N)C(=O)N[C@H]1CSSC[C@@H](C(=O)N[C@H](C(=O)N2CCC[C@H]2C(=O)N[C@@H](CC(=O)O)C(N)=O)[C@@H](C)CC)NC(=O)[C@H]([C@@H](C)CC)NC(=O)[C@@H]2C[C@@H]3CCCC[C@@H]3N2C(=O)[C@@H]2CCCN2C(=O)[C@H](CC(C)C)NC(=O)[C@H](CO)NC(=O)[C@H](CCCNC(=N)N)NC(=O)[C@H](CO)NC1=O) [AIC+SRSLP-(Oic)-IC+IPD-NH2]
result: 400 nM
